Source of measurements: the supplement of paper PMC6555819

# Tested on: RARa:RXR (NR concentration 270 nM, RXRa partner concentration 90 nM)
# assay-notes: PBM binding z-score (relative to random genomic background probes); higher = stronger binding; sequences stand for … in GC…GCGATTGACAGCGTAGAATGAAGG
readout-name: PBM binding z-score

Example cases with answers are listed next.
> print(dat)
                     residue.sequence   result
1  AGAATGAGGTTAGGATCAGGGAAACAGAATACAT    0.932
2  CAGCCTAGGTCAGGGCCAGTATAGGAGGAACGTT      1.2
3  CCGACTGGGGCAGAAAGGTAACCATACCATCCGG  -0.0683
4  AGAATAAGGTTATTAAGATCAGGGAATTGCGGTC     1.49
5  TCTCCGAGGACACGAAAGGTCAGAGCTCGACATC     4.27

From here, focus on the item given below.
Challenge: Sample GCAGACAGGTGAATCGCAGGTAACTCAGGGTGGC — what was its PBM binding z-score?
Response given: 0.0382

###

# Test system: FXR:RXRa (NR concentration 270 nM, RXRa partner concentration 90 nM)
# assay-notes: PBM binding z-score (relative to random genomic background probes); higher = stronger binding; sequences stand for … in GC…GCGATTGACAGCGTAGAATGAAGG
Items are presented alongside their recorded PBM binding z-score.
Answer with a number only.

> print(dat)
                     residue.sequence         readout.name  numeric.readout
1  CGTCCAAGGTCAGAGAGGTCGGTGAATGCCGAGT  PBM binding z-score             4.71
2  CAAACTAGGTGAAGGTCAAAGTCGGTTTGTGCCA  PBM binding z-score             4.11
3  CCTACTGGGCCAAAAAGGTCCTTGATGCCGATAA  PBM binding z-score           -0.386
4  ATACCAAGGTGATCGTGAGGTCGTTGACACTAAC  PBM binding z-score             2.81
5  CCGACTGGGGCAAACGTTACCATACTCAGTACGA  PBM binding z-score           -0.264

From here, focus on the item given below.
Challenge: Item ACAGACAGGTGAGTGAAGGTAAGTCAGCTGGACG with FXR:RXRa (NR concentration 270 nM, RXRa partner concentration 90 nM) - PBM binding z-score?
Response given: 0.17

###

# System: RARb:RXRa (NR concentration 270 nM, RXRa partner concentration 90 nM)
# assay-notes: PBM binding z-score (relative to random genomic background probes); higher = stronger binding; sequences stand for … in GC…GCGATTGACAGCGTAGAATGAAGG
Items are presented alongside their recorded PBM binding z-score.
Answer with a number only.

> print(dat)
                      residue.sequence         readout.name  numeric.readout
 1  CGTCAAAGTTCAACTACGGTAACGTAAAGCACGC  PBM binding z-score              5.2
 2  ATCTCTAGGTAAAAGTTCAGTTAATCCCGAGGAT  PBM binding z-score             2.24
 3  TCTTGCAGATCAATAGAGGTTAAGAAAGTGCGCT  PBM binding z-score            0.805
 4  TCAGACAGGTGAAAGTAACTCAGGTACGCAGTCG  PBM binding z-score            0.907
 5  ATATGTAGGTTAACGGGTCATTCAGTTTGCGCAT  PBM binding z-score             2.54
 6  GAGACAGGGTCAAGGCCAGAGTACGCGTATTGAT  PBM binding z-score              4.2
 7  CGAACGAGGGCATGAGTTGATGGCAAATGCCGAT  PBM binding z-score             1.99
 8  AGTCAAAGTTAATCTAGGTAACGTAAGATATGCT  PBM binding z-score             0.39
 9  GCATATAGGTAATACACGGTGAAAGTCCGATTGT  PBM binding z-score          -0.0307
10  TCTAGCCGGCCAGAGGGTCACTCAAGAGGTACGG  PBM binding z-score             2.08

Challenge: Sample AGAATGAGGTTATTAAGATCAGGGAATTGCGGTC — what was its PBM binding z-score?
Response given: 1.46

Challenge: Sample TCATATAGGTAAACAAGTGAAAGTCCGTAAGTTA — what was its PBM binding z-score?
Response given: 0.893

Challenge: Sample CTACAAAGGTGAACAAGGTCGTTGATTACTATTC — what was its PBM binding z-score?
Response given: 3.63

Challenge: Sample ACTAGCAGGCCAAGTTTGGGACACTCAAACAAAG — what was its PBM binding z-score?
Response given: 0.366

Challenge: Sample GGAACGAGGCCAAGTTGATAGCAGAGTTTGATGG — what was its PBM binding z-score?
Response given: 1.36
